Cited source for all entries: patent US20120172295A1

targetUnderTest: glucagon receptor (UniProt P47871 26-477, limits assumed)
Sequence (P47871 26-477 limits assumed): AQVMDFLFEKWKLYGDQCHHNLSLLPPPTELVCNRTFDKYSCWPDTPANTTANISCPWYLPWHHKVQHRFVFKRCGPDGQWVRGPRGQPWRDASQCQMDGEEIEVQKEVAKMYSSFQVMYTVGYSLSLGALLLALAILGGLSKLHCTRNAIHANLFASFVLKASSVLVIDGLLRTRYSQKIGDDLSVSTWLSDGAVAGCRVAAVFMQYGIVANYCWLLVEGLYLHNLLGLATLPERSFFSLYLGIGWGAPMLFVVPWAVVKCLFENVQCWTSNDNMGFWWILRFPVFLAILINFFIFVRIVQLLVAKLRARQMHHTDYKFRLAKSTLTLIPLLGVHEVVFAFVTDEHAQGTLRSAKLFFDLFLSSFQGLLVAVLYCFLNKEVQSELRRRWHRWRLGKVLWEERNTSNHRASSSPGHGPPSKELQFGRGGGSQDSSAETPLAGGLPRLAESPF
testProtocol: cell-based or functional assay
pEC50: −log10 of the molar value. No end group written: not given here.
Below: a set of entries, each annotated with reported pEC50.

{"binder": "HSQGTFTSDYSKYLDSRRAQDFVQWLVKGGPSSGAPPPS-NH2 [VKGG30 PSSGAPPPS (SEQ ID NO: 524)]", "pEC50": 8.94}
{"binder": "HSQGTFTSDYSKYLDSRRAQDFVQWLMKGGPSSGAPPPS-NH2 [MKGG30 PSSGAPPPS (SEQ ID NO: 523)]", "pEC50": 9.21}
{"binder": "HSQGTFTSDYSKYLDSRRAQDFVQWLMDGGPSSGAPPPS-NH2 [MDGG30 PSSGAPPPS (SEQ ID NO: 525)]", "pEC50": 9.92}
